test: Cmax in Sprague-Dawley rat at 50 mg/kg, po measured after 0.03 to 72 hrs by LC-MS analysis; type: ADME, organism-based; design: route oral, dose 50 mg/kg, time 0.03-72; details: in vivo
measuredEndpoint: Cmax (µg/mL)
Reply with just the number (in µg/mL).

Entry under review: COc1ccc(S(=O)(=O)[N-]C(=O)c2cc3c(Nc4cccc(OC)c4)ccc(Cl)c3n2C)cc1.[Na+] . Reported Cmax?
53.7

###

assay: MRT (0 to t) in Sprague-Dawley rat at 50 mg/kg, po measured after 0.03 to 72 hrs by LC-MS analysis; format: ADME, organism-based; conditions: in vivo, time 0.03-72 hrs
measuredEndpoint: MRT last (h)
All answers are understood in h, so give the number only.

Item under review: COc1ccc(S(=O)(=O)[N-]C(=O)c2cc3c(Nc4cccc(OC)c4)ccc(Cl)c3n2C)cc1.[Na+] . Reported MRT last?
7.88
